molecular target: recombinant HA, subtype H1 (A/New Caledonia/20/99 (H1N1)) (influenza A virus A/New Caledonia/20/99 …, UniProt Q289M7 18-565); experiment: ELISA, coated HA, IgG 5 µg/ml
metric: OD 492 nm (OD 492 nm)
The reply should contain only the number, in OD 492 nm.

Task: Provide OD 492 nm value for the following binder: CR6314 (antibody, V domains shown) VH: EVQLVESGAEVKKPGSSVKVSCKASGGPFRSYAISWVRQAPGQGPEWMGGIIPIFGTTKYAPKFQGRVTITADDFAGTVYMELSSLRSEDTAMYYCAKHMGYQVRETMDVWGKGTTVTVSS VL: SYVLTQPPSASGTPGQRVTISCSGSSSNIGSNYVYWYQQLPGTAPKLLIYRDGQRPSGVPDRFSGSKSGTSASLAISGLRSDDEADYYCATWDDNLSGPVFGGGTKLTVLG
Result: 1.93

Task: Please report the measured OD 492 nm for CR6344 (antibody, V domains shown) VH: QVQLVQSGAEVKKPGSSVRVSCKASGSIFRNYAMSWVRQAPGQGLEWMGGIIAIFGTPKYAQKFQGRVTITADESTSTVYMELSGLRSEDTAMYYCARIPHYNFGSGSYFDYWGQGTLVTVSS VL: TVLTQPPSVSGAPGQRVTISCTGSSSNIGAGYDVHWYQQLPGTAPKLLIYGNSNRPSGVPDRFSGSKSGTSATLGITGLQTGDEADYYCGTWDSSLSAYVFGTGTKVTVLG
Result: 1.8

Task: Give me measured OD 492 nm, please, for this binder: CR6262 (antibody, V domains shown) VH: QVQLQQSGAEVKKPGSSVKVSCKVSGVIFSGSAISWVRQAPGQGLEWMGGISPLFGTTNYAQKFQGRVTITADQSTNTTYMEVNSLRYEDTAVYFCARGPKYYSEYMDVWGKGTTVTVSS VL: DIQMTQSPSSLSASVGDRVTITCRASQGISSYLAWYQQKPGKVPTLLIYDASTLRSGVPSRFSGSGSATDFTLTISSLQPEDVATYYCQRYNSAPPITFGQGTRLEIKR
Result: 1.48

Task: Report OD 492 nm for CR6268 (antibody, V domains shown) VH: QVQLVQSGAEVKKPGSSVKVSCKASGGTFSSYAISWVRQAPGQGLEWMGGIMGMFGTTNYAQKFQGRVTITADEFTSAAYMELRSLRSEDTAVYYCARSSGYYPEYFQDWGQGTLVTVSS VL: QSVLTQPPSESVSPGQTASVTCSGHKLGDKYVSWYQQKPGQSPVLLIYQDNRRPSGIPERFIGSNSGNTATLTISGTQALDEADYYCQAWDSSTAVFGGGTKLTVLG
Result: 1.78

Task: Dear colleague, please send me the reported OD 492 nm for CR6255 (antibody, V domains shown) VH: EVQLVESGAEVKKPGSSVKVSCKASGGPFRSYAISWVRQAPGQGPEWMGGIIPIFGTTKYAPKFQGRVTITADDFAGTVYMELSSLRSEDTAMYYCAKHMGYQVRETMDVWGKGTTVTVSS VL: SYVLTQPPSASGTPGQRVTISCSGSTFNIGSNAVDWYRQLPGTAPKLLIYSNNQRPSGVPDRFSGSRSGTSASLAISGLQSEDEADYYCAAWDDILNVPVFGGGTKLTVLG when you can.
Result: 1.91

Values from patent US20090311265A1
